# credit: patent US8287850B2

- System: mouse NFS-60 cells
- Experiment: Mitogenicity of G-CSF variants for mouse NFS-60 cells (Example 6.3)
- Type: cell-based
- Details: Conc. 5 pg/ml (G-CSF content), 3 days
Reported Proliferation of mouse NFS-60 cells, induced by G-CSF variants values follow for various molecules
API doc: respond with a numeric literal and nothing else, no unit.

Molecule	Obs value
Neulasta: non-modified Neulasta (Amgen) (conjugate, UniProt P09919 31-207, looked up, pegfilgrastim; 20 kDa PEG) Granulocyte …: TPLGPASSLPQSFLLKCLEQVRKIQGDGAALQEKLVSECATYKLCHPEELVLLGHSLGIPWAPLSSCPSQALQLAGCLSQLHSGLFLYQGLLQALEGISPELGPTLDTLQLDVADFATTIWQQMEELGMAPALQPTQGAMPAFASAFQRRAGGVLVASHLQSFLEVSYRVLRHLAQP	0.80

Continue with the molecule presented below.
Give the measured Proliferation of mouse NFS-60 cells, induced by G-CSF variants for Mock-incubation: reaction control: hG-CSF incubated with 197 mg/ml non-functionalized HES50/0.7 (MW 47,000 D, DS 0.76) (protein, UniProt P09919 31-207, looked up, mixed with non-functionalized HES) Granulocyte …: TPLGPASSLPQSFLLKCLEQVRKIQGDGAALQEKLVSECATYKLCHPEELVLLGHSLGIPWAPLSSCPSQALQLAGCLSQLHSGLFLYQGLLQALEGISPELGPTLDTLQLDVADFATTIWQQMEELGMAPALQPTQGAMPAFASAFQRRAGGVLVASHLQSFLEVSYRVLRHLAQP
1.31
